experimental_protocol: First-in-human Part 2 multiple ascending dose q.d. blood and urine PK
Type: in vivo
assay_setup: human, blood, oral, 600 mg, 600 mg qd, Day 1, blood; Median (Min-Max); read-out: MRT

{"columns": ["smiles_structure", "MRT"],
 "data": [
  ["C=CC(=O)N(C)CCOc1c(N)ncnc1-c1cc(F)cc(NC(=O)c2ccc(C3CC3)cc2F)c1C", "3.22 h"]
]}

====

experimental_protocol: First-in-human Part 2 multiple ascending dose q.d. blood and urine PK
Format: in vivo
assay_setup: human, whole blood, oral, 100 mg, 100 mg qd, Day 12, blood; Median (Min-Max); read-out: AUClast

{"columns": ["smiles_structure", "AUC(0-t)"],
 "data": [
  ["C=CC(=O)N(C)CCOc1c(N)ncnc1-c1cc(F)cc(NC(=O)c2ccc(C3CC3)cc2F)c1C", "444 ng·h/mL"]
]}
